# assay_target: neutral endopeptidase (NEP) (Homo sapiens, UniProt P08473)
# Sequence (P08473 whole entry, species assumed): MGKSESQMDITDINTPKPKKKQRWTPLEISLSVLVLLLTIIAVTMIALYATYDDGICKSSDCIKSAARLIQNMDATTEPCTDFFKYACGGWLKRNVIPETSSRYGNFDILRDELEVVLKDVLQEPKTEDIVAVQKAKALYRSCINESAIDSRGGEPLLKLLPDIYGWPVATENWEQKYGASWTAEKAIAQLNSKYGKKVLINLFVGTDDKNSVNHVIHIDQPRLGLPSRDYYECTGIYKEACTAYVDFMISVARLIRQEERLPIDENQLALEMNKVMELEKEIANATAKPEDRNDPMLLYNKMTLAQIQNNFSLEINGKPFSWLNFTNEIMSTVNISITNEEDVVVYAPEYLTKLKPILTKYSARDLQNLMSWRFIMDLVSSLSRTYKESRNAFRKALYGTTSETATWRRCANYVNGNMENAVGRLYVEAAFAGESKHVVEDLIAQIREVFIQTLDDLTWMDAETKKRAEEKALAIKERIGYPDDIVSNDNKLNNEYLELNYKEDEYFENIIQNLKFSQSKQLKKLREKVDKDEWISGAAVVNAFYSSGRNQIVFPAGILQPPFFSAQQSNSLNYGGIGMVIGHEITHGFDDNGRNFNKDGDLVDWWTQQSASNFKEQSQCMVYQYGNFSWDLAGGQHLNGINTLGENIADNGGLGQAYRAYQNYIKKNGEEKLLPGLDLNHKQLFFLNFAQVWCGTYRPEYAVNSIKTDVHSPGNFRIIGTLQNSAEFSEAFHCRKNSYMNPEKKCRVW
# test_protocol: Degradation of Met-enkephalin by NEP alone and in the presence of inhibitors
# study_conditions: isolated enzyme neprilysin, pH 7.4
measured_quantity: half-life at 0.0413 mM

Qu. Record request: half-life at 0.0413 mM value, item CSCC[C@H](NC(=O)[C@H](Cc1ccccc1)NC(=O)CNC(=O)CNC(=O)[C@@H](N)Cc1ccc(O)cc1)C(=O)O [Met-Enkephalin, Met-enkephalin, reference compound]
Ans. 27 min
